Taken from paper PMC7156458.

// Th-T fluorescence, mean of three wells lookup, one value per entry
Target: Aβ42 (Homo sapiens, UniProt P05067)
Sequence (P05067 672-713): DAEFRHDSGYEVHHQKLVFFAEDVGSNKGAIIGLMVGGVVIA
Test: Th-T (thioflavin-T) assay of Aβ42 aggregation
Assay type: biochemical
Details: time course, reading M61
Answer field: number only, no words.

Would you please look over these solved cases?
# Molecule, Measurement target, Recorded number
records = [
    ("C=C1CC[C@@H]2[C@](C)(CC[C@H]3O[C@H](C=C(C)C)C[C@@]23C)[C@@H]1Cc1c(O)c(C)c(C)oc1=O [Compound 10, higginsianin A]", "Aβ42 (Homo sapiens, UniProt P05067)", 3.114),
    ("C=C1CCC2C3(C)CC(C=C(C)C)OC3CCC2(C)C1Cc1c(OC)oc(C)c(C)c1=O (centres unmarked) [Compound 23]", "Aβ42 (Homo sapiens, UniProt P05067)", 4.001),
    ("C=C1CC[C@H]2[C@]3(C)C[C@H](C=C(C)C)O[C@H]3CC[C@]2(C)[C@@H]1Cc1c(OC)oc(C)c(C)c1=O [Compound 24]", "Aβ42 (Homo sapiens, UniProt P05067)", 4.118),
    ("C=C1CC[C@H]2[C@]3(C)C[C@@H](C=C(C)C)O[C@H]3CC[C@]2(C)[C@@H]1Cc1c(OC)oc(CO)c(C)c1=O [Compound 17]", "Aβ42 (Homo sapiens, UniProt P05067)", 3.653),
]

# context switch: different molecule, same Th-T fluorescence, mean of three wells
## Input Item C=C1CCC2C(C)(CC(=O)C=C(C)C)C(O)CCC2(C)C1Cc1c(O)c(C)c(C)oc1=O (centres unmarked) [Compound 7] with Aβ42 (Homo sapiens, UniProt P05067) - Th-T fluorescence, mean of three wells?
## Output 3.605
